study-system: LsrK (Salmonella typhimurium, UniProt Q8ZKQ6)
Sequence (Q8ZKQ6 whole entry): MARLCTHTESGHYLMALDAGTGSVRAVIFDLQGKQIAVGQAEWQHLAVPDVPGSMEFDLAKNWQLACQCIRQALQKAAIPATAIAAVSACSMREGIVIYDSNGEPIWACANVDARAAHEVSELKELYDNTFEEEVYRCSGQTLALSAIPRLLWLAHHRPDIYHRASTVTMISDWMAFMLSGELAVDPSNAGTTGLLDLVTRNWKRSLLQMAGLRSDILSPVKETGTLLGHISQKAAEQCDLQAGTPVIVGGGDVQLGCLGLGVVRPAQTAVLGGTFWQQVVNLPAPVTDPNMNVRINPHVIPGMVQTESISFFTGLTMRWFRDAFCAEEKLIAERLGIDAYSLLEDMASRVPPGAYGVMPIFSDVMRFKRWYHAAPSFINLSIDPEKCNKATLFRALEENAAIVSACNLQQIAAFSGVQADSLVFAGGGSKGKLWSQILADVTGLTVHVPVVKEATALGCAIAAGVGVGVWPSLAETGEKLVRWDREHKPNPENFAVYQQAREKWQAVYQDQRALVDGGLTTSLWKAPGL
experiment: biochemical
Type: biochemical, S. typhimurium
Where a name gives a salt, the structure may show the parent alone.
reported-metric: inhibition at 50 µM (%)
Answers are plain numbers, in %.

CC(NCCC(c1ccccc1)c1ccccc1)c1ccccc1 (stereo not drawn) [FENDILINE HYDROCHLORIDE] : 0
O=C(O)c1cc(-c2ccccc2)nc2ccccc12 : 6
COc1c(O)cccc1O : 0

For every listed record, write down its inhibition at 50 µM.
1. Cc1cccc2c3c(ccc12)C1=C(C(=O)C3=O)[C@@H](C)CO1 [DIHYDROTANSHINONE I]
2. NS(=O)(=O)c1cc2c(cc1C(F)(F)F)NC(Cc1ccccc1)NS2(=O)=O (stereo not drawn) [BENDROFLUMETHIAZIDE]
3. COc1ccc([C@@H](C)C(=O)c2ccc(O)cc2O)cc1 [ANGOLENSIN (R)]
4. CC(=O)O[C@H]1C[C@@H](OC(C)=O)C(C)(C)[C@@H]2CC(=O)[C@]3(C)[C@H](CC[C@@]4(C)[C@H](c5ccoc5)OC(=O)[C@H]5O[C@]543)[C@@]12C
5. COc1cc(O)c2c(=O)cc(C)oc2c1CC=C(C)C
6. NCc1ccc(S(N)(=O)=O)cc1 [MAFENIDE HYDROCHLORIDE]

115
0
1
133
1
1

# per-item lookup of inhibition at 50 µM; items listed below
1. CC(C)/C(O)=C1/C(=O)O[C@@H](c2ccoc2)[C@]2(C)C(O)[C@@H](O)[C@@]34OC5(C)OC67CC(C)(C(O)[C@]6(O)[C@@H](O)[C@]3(O5)C12)[C@H](CC(=O)O)[C@]74C (stereo partly drawn) [[…] OF BUSSEIN]
2. Nc1ncnc2[nH]cnc12
3. COc1cc(-c2ccc(/N=N/c3ccc4c(S(=O)(=O)O)cc(S(=O)(=O)O)c(N)c4c3O)c(OC)c2)ccc1/N=N/c1ccc2c(S(=O)(=O)O)cc(S(=O)(=O)O)c(N)c2c1O

1
1
41
